Here, each record is paired with measured IC50 data.
# Tested Target: Cytochrome P450 3A4 (Homo sapiens)
# Sequence (P08684 whole entry): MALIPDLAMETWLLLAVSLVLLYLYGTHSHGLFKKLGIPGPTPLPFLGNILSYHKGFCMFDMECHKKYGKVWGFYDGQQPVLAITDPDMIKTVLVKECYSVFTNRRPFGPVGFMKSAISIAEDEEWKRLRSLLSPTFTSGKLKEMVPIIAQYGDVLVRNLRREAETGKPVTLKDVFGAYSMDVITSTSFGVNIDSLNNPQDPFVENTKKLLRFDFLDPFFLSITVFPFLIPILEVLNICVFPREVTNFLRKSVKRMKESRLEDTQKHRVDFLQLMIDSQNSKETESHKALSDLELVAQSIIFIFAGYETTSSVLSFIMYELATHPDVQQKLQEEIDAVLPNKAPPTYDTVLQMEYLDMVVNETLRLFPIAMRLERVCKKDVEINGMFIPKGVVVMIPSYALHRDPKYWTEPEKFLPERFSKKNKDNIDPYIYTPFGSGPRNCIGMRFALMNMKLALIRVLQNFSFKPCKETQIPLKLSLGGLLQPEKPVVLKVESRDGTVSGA
# Assay Protocol: Inhibition of CYP3A4 in human liver microsomes using testosterone as substrate after 15 mins by LC/MS/MS analysis

Molecule | Unit Abbrev | IC50
C=C[C@]1(C)C[C@@H](OC(=O)CSc2cncc(NC(=O)CN3CCC(O)CC3)c2)[C@]2(C)[C@H](C)CC[C@]3(CCC(=O)[C@H]32)[C@@H](C)[C@@H]1O | nM | 1630
C=C[C@]1(C)C[C@@H](OC(=O)CS[C@@H]2CC[C@@H](N)C[C@H]2O)[C@]2(C)[C@H](C)CC[C@]3(CCC(=O)[C@H]32)[C@@H](C)[C@@H]1O | nM | 4430
C=C[C@]1(C)C[C@@H](OC(=O)CSc2cncc(NC(=O)CN3CCCC(O)C3)c2)[C@]2(C)[C@H](C)CC[C@]3(CCC(=O)[C@H]32)[C@@H](C)[C@@H]1O (stereo partly specified) | nM | 1240
C=C[C@]1(C)C[C@@H](OC(=O)CSc2cncc(N)c2)[C@]2(C)[C@H](C)CC[C@]3(CCC(=O)[C@H]32)[C@@H](C)[C@@H]1O | nM | 44.4
C=C[C@]1(C)C[C@@H](OC(=O)CSc2cccc(CO)c2)[C@]2(C)[C@H](C)CC[C@]3(CCC(=O)[C@H]32)[C@@H](C)[C@@H]1O | nM | 1900
C=C[C@]1(C)C[C@@H](OC(=O)CSc2ccccn2)[C@]2(C)[C@H](C)CC[C@]3(CCC(=O)[C@H]32)[C@@H](C)[C@@H]1O | nM | 1360
